Target: furin, P09958;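 further: purified furin at 1:10 enzyme:substrate in 50 mM HEPES pH 7.5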
Sequence (P09958 whole entry): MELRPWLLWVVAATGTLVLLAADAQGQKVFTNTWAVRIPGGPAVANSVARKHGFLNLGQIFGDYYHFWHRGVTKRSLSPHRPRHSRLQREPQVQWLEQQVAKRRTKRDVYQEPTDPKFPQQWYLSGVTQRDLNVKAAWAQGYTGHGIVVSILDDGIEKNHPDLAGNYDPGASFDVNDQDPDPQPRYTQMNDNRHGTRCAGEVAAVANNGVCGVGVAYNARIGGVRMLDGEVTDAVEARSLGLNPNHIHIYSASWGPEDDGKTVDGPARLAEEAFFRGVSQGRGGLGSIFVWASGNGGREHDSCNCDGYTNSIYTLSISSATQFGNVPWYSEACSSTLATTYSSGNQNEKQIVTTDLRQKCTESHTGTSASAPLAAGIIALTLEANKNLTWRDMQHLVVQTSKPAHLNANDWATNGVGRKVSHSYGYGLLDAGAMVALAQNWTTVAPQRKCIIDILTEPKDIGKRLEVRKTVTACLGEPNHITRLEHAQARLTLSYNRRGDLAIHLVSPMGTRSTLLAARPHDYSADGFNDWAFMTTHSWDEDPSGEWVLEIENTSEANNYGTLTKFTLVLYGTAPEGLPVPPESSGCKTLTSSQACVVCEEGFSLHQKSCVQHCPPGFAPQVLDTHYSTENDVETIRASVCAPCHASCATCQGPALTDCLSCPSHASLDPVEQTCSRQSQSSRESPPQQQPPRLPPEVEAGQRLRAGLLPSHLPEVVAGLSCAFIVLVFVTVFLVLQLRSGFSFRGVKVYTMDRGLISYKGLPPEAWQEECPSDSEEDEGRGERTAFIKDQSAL
Test: furin cleavage Z-score vs untreated control; higher = more cleavage, active = 3.5 or more, inactive = 1 or less, 8 variable residues between constant flanks
Settings: 30 min
The list shows a part of the results. The true hit rate is not given.
Here the recorded furin cleavage Z-score is given for each entry.
outcome measure: furin cleavage Z-score

item_sequence="CAWGRRKARMAGNASASA [FS-1437]" outcome_measure="furin cleavage Z-score" recorded_result=9.74
item_sequence="CAVCTTPCSGAGNASASA [HC1950]" outcome_measure="furin cleavage Z-score" recorded_result=0.388
item_sequence="CAQWARYARWAGNASASA [FS-484]" outcome_measure="furin cleavage Z-score" recorded_result=2.8
item_sequence="CAVPCVREGNAGNASASA [HC274]" outcome_measure="furin cleavage Z-score" recorded_result=-1.84
item_sequence="CANKKRKARWAGNASASA [FS-1238]" outcome_measure="furin cleavage Z-score" recorded_result=9.18
item_sequence="CAYHSVSHARAGNASASA [HC1651]" outcome_measure="furin cleavage Z-score" recorded_result=0.0597
item_sequence="CAVLIDILAGAGNASASA [HC1084]" outcome_measure="furin cleavage Z-score" recorded_result=-1.35
item_sequence="CARKERRKHKAGNASASA [FS-2959]" outcome_measure="furin cleavage Z-score" recorded_result=0.503
item_sequence="CATLARRKRSAGNASASA [FS-1423]" outcome_measure="furin cleavage Z-score" recorded_result=9.32
item_sequence="CAWEKRSRGQAGNASASA [FS-2625]" outcome_measure="furin cleavage Z-score" recorded_result=-0.906
item_sequence="CAEVVTSTPVAGNASASA [HC2239]" outcome_measure="furin cleavage Z-score" recorded_result=-0.991
item_sequence="CAKRKRWTGQAGNASASA [FS-2478]" outcome_measure="furin cleavage Z-score" recorded_result=4.37
item_sequence="CAGRGRRRRLAGNASASA [FS-1204]" outcome_measure="furin cleavage Z-score" recorded_result=1.19
item_sequence="CANKKRGGTAAGNASASA [WN4]" outcome_measure="furin cleavage Z-score" recorded_result=-0.0754
item_sequence="CASNGRRKRSAGNASASA [FS-1570]" outcome_measure="furin cleavage Z-score" recorded_result=9.24
